Recorded values, source ChEMBL document CHEMBL1143265.

# Protocol Notes: Volume of distribution at steady state in mouse at 6.7 mg/kg, iv
# Type: ADME, organism-based
# Parameters: dose 6.7 mg/kg, route intravenous
# Condition Info: in vivo, read-out: Vdss
Measured Quantity: Vd (L/kg)
# number only, unit L/kg dropped from output

Reported Vd for COc1cc2ncn(-c3cc(OCc4ccccc4C(F)(F)F)c(C(N)=O)s3)c2cc1OC [GW843682X] was 1.5

###

# Protocol Notes: Oral bioavailability in mouse at 10 mg/kg
# Assay type: ADME, organism-based
# Condition Info: in vivo
Measured Quantity: bioavailability (%)
A number alone suffices; assume %.

Query COc1cc2ncn(-c3cc(OCc4ccccc4C(F)(F)F)c(C(N)=O)s3)c2cc1OC [GW843682X] yields bioavailability of 14

###

# Tested Target: Serine/threonine-protein kinase PLK1 (Homo sapiens, UniProt P53350)
# Sequence (P53350 whole entry): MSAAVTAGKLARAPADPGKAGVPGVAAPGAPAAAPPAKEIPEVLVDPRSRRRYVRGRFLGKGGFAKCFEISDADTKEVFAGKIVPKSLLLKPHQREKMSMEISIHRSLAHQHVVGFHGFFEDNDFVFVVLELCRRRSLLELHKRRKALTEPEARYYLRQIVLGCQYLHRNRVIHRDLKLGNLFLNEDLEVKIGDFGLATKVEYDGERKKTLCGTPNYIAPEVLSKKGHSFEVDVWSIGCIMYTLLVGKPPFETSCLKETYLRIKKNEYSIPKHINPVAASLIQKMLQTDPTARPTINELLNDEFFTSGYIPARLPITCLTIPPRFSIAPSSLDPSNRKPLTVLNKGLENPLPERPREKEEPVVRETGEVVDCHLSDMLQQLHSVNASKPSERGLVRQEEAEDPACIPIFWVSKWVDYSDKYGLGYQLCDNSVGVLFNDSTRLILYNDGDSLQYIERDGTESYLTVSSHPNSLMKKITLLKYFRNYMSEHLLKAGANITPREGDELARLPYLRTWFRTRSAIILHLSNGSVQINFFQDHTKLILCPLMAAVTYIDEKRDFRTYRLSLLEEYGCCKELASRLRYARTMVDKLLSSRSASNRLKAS
# Protocol Notes: Inhibition of PLK1 expressed in baculovirus-infected Trichoplusia-ni cells by scintillation proximity assay
Binning scheme for IC50: lower range: < 0.01 µM; middle range: ≥ 0.01 µM and < 0.03 µM; upper range: ≥ 0.03 µM

Some solved cases for reference:
COc1cc2ncn(-c3cc(OCc4ccccc4Cl)c(C(N)=O)s3)c2cc1OC [GW852849X]; lower range
COc1cc2ncn(-c3cc(OCc4ccccc4C(F)(F)F)c(C(=O)N(C)C)s3)c2cc1OC [GSK-1030062A]; upper range

Query: Textbook exercise: identify the category of the compound given here, CS(=O)(=O)c1ccc2c(c1)ncn2-c1cc(OCc2ccccc2C(F)(F)F)c(C(N)=O)s1 , according to its measured value.
Result: upper range

Query: Class? Entry: COc1cc2ncn(-c3cc(OCc4ccsc4)c(C(N)=O)s3)c2cc1OC
Result: middle range

Query: Lab note: sort COc1cc2ncn(-c3cc(OCc4ccccc4C(F)(F)F)c(C(N)=O)s3)c2cc1OC [GW843682X] into the matching IC50 band.
Result: lower range

Query: Band for the recorded IC50 of COc1cc2ncn(-c3cc(OCc4ccccc4C(C)=O)c(C(N)=O)s3)c2cc1OC ?
Result: middle range

Query: Hi, small favor: classify COc1ccccc1COc1cc(-n2cnc3cc(OC)c(OC)cc32)sc1C(N)=O by its IC50 when you get a moment.
Result: lower range

###

# Protocol Notes: Clearance in mouse at 6.7 mg/kg, iv
# Assay type: ADME, organism-based
# Set-up: dose 6.7 mg/kg, route intravenous
# Condition Info: in vivo
Measured Quantity: clearance (mL/min/kg)
Use mL/min/kg as the unit, but write only the number.

Input COc1cc2ncn(-c3cc(OCc4ccccc4C(F)(F)F)c(C(N)=O)s3)c2cc1OC [GW843682X] . Output clearance: 47.4

###

# Tested Target: Vascular endothelial growth factor receptor 3 (Homo sapiens, UniProt P35916)
# Sequence (P35916 whole entry): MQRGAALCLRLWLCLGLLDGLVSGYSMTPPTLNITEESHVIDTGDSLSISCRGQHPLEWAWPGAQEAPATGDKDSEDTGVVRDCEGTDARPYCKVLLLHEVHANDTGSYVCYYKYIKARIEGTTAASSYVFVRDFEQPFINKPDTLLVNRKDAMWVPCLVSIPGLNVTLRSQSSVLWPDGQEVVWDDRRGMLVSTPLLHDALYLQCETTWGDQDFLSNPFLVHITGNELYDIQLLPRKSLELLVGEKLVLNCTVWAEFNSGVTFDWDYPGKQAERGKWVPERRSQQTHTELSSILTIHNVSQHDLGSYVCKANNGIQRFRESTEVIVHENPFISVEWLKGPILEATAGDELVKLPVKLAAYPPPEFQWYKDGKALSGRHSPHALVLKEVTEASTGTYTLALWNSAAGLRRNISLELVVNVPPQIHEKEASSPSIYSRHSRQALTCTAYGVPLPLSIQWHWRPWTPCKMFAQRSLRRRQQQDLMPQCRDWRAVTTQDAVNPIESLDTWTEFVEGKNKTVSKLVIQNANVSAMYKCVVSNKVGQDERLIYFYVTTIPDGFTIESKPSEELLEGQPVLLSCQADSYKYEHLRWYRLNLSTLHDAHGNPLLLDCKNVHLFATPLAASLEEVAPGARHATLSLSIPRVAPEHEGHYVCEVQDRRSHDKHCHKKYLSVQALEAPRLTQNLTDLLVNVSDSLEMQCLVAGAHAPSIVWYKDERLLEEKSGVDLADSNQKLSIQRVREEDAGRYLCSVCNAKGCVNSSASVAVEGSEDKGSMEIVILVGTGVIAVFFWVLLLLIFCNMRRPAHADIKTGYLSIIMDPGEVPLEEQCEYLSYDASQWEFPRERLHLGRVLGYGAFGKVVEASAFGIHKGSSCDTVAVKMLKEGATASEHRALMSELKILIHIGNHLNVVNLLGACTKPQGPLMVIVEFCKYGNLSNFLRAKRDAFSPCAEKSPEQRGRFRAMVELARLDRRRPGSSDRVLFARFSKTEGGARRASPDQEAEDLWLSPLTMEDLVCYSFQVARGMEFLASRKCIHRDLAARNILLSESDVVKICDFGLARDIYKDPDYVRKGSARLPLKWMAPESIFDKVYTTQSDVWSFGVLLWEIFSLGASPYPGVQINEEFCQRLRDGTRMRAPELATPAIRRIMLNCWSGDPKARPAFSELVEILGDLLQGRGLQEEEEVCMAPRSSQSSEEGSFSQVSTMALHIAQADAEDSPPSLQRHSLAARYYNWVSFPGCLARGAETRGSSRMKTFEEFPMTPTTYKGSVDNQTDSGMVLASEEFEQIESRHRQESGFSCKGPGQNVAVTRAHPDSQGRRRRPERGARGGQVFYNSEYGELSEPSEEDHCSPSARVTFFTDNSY
Measured Quantity: pIC50
Please express pIC50 as -log10 of the molar concentration.

Query COc1cc2ncn(-c3cc(OCc4ccccc4C(F)(F)F)c(C(N)=O)s3)c2cc1OC [GW843682X] yields pIC50 of 7.04

###

As a worked illustration, we turn to pIC50 data collected for Serine/threonine-protein kinase PLK1 (Homo sapiens, UniProt P53350).
API: returns pIC50 as number; meaning -log10 of concentration in mol/L.

Short answer on Serine/threonine-protein kinase PLK1 (Homo sapiens, UniProt P53350) for COc1cc2ncn(-c3cc(OCc4cccs4)c(C(N)=O)s3)c2cc1OC [GSK-312948A] , pIC50: 7.96

Assay Serine/threonine-protein kinase PLK1 (Homo sapiens, UniProt P53350), sample NC(=O)c1sc(-n2cnc3ccc(C(F)(F)F)cc32)cc1OCc1ccccc1Br [GW853606X] , pIC50 read: 8.05

The value of pIC50 recorded for COc1cc2ncn(-c3cc(OCc4ccccc4)c(C(N)=O)s3)c2cc1OC when tested on Serine/threonine-protein kinase PLK1 (Homo sapiens, UniProt P53350) reads 7.92

Reading of pIC50 for NC(=O)c1sc(-n2cnc3ccccc32)cc1OCc1ccc(Cl)cc1 with Serine/threonine-protein kinase PLK1 (Homo sapiens, UniProt P53350): 7.00

Serine/threonine-protein kinase PLK1 (Homo sapiens, UniProt P53350) pIC50 of COc1cc2ncn(-c3cc(OCc4ccncc4)c(C(N)=O)s3)c2cc1OC is 6.89

Tested on Serine/threonine-protein kinase PLK1 (Homo sapiens, UniProt P53350), the item COc1cc2ncn(-c3cc(OCc4ccco4)c(C(N)=O)s3)c2cc1OC showed pIC50 equal to 7.57

###

# Tested Target: Serine/threonine-protein kinase PLK1 (Homo sapiens, UniProt P53350)
Measured Quantity: IC50 (nM)
The reply should be a number in nM, with the unit left off.

Would you please look over these solved cases?
COc1cc2ncn(-c3cc(OCc4ccccc4OC(F)(F)F)c(C(N)=O)s3)c2cc1OC; 5
COc1ccc(COc2cc(-n3cnc4ccccc43)sc2C(N)=O)cc1; 35
Cc1ccccc1COc1cc(-n2cnc3ccccc32)sc1C(N)=O; 12
NC(=O)c1sc(-n2cnc3ccccc32)cc1OCc1ccccc1Br [GSK-1023156A]; 11
Cc1cccc(COc2cc(-n3cnc4ccccc43)sc2C(N)=O)c1; 12
COc1cccc(COc2cc(-n3cnc4ccccc43)sc2C(N)=O)c1 [GW804482X]; 28

Looking up COc1cc2ncn(-c3cc(OCc4ccoc4)c(C(N)=O)s3)c2cc1OC , I found its IC50 recorded as 190

response.value for Cc1ccc(COc2cc(-n3cnc4ccccc43)sc2C(N)=O)cc1 (field: IC50) = 70

###

# Tested Target: Serine/threonine-protein kinase PLK1 (Homo sapiens, UniProt P53350)
Measured Quantity: pIC50
The value called pIC50 is obtained by taking minus log10 of the concentration in mol/L.

For NC(=O)c1sc(-n2cnc3ccccc32)cc1OCc1cccc(Cl)c1 on Serine/threonine-protein kinase PLK1 (Homo sapiens, UniProt P53350), measured pIC50 was 7.66

Readout pIC50 for COc1cc2ncn(-c3cc(OCc4ccccc4S(C)(=O)=O)c(C(N)=O)s3)c2cc1OC , test system Serine/threonine-protein kinase PLK1 (Homo sapiens, UniProt P53350), was 7.51

Reported pIC50 (Serine/threonine-protein kinase PLK1 (Homo sapiens, UniProt P53350)) for entry NC(=O)c1sc(-n2cnc3ccccc32)cc1OCc1ccccc1F is 7.85
